Where do these numbers come from? They come from patent US20190077795A1.

TARGET ENTITY: human PRMT1 (Homo sapiens)
Construct: GST-tagged PRMT1; made in house; host or cells: High Five insect cells (baculovirus, pFastBac1)
ASSAY INFO: PRMT1 Biochemical Assay
CONDITION NOTES: peptide substrate, 3H-SAM Flashplate assay; read-out: PRMT1 IC50
pIC50: −log10 of the molar value.
RESULT TYPE: pIC50

{"COMPOUND": "CNCCN(C)Cc1c[nH]nc1-c1ccc(NC(C)c2cccnc2)nc1 (centres unmarked)", "pIC50": 7.97}
{"COMPOUND": "CNCCN(C)Cc1ccnn1[C@H]1CC[C@@H](COC)CC1", "pIC50": 7.44}
{"COMPOUND": "CNCCN(C)Cc1c[nH]nc1-c1ccc(OCCCOC)c(OCC2CCOCC2)c1", "pIC50": 7.64}
{"COMPOUND": "CNCCN(C)Cc1c[nH]nc1-c1ccc(OCCOc2cccc(N3CCOCC3)c2)cc1", "pIC50": 7.98}
{"COMPOUND": "CNCCN(C)Cc1c[nH]nc1-c1cc(OCCOC)cc(C(C)(C)C)c1", "pIC50": 7.44}
{"COMPOUND": "CNCCN(C)Cc1c[nH]nc1-c1ccc(OCCOc2ccc(OC)cc2)cc1", "pIC50": 8.23}

1: CNCCN(C)Cc1c[nH]nc1-c1ccc(OC(COc2ccccc2)COc2ccccc2)cc1
2: CNCCN(C)Cc1c[nH]nc1-c1cc(OCCOC)cc(C(C)C)c1
input: Problem: Given the entries 1 and 2 , determine which has the lower reported pIC50. Respond with the label that goes with your answer.
output: 2
(2: 7.59, 1: 8.14)

====

TARGET ENTITY: UniProtKB Q9NR22
Sequence (Q9NR22 whole entry): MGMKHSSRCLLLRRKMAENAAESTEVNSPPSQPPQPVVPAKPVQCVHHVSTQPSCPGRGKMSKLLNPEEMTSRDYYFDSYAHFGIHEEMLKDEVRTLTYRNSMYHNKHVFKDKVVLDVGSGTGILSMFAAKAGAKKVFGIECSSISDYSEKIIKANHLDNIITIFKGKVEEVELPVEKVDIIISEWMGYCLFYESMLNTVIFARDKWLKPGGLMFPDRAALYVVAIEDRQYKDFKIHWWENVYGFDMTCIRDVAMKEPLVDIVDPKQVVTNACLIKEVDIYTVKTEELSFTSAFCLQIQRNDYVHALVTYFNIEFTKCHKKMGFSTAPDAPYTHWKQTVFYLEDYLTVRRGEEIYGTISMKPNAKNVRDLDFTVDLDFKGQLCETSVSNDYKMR
ASSAY INFO: PRMT8 Biochemical Assay
CONDITION NOTES: PRMT8 IC50 (uM), peptide substrate, 3H-SAM Flashplate assay
RESULT TYPE: IC50 (µM)
Provide the reading as a plain figure in µM.

Study these solved cases before continuing.
{"GIVEN SMILES": "CNCCN(C)Cc1c[nH]nc1-c1cc(OCCCC(C)C)cc(C(F)(F)F)c1", "UNITS SYMBOL": "µM", "IC50": 0.0261}
{"GIVEN SMILES": "CNCCN(C)Cc1c[nH]nc1-c1cc(OC)c(CC(C)C)c(OC)c1", "UNITS SYMBOL": "µM", "IC50": 0.0712}

API: the following record is the query input.
Value (IC50, UniProtKB Q9NR22) for record `CNCCN(C)Cc1c[nH]nc1-c1cc(F)c(OCC2CCOCC2)c(C(F)(F)F)c1` = 0.118

====

TARGET ENTITY: human PRMT1 (Homo sapiens, UniProt Q99873)
Construct: GST-tagged PRMT1; made in house; host or cells: High Five insect cells (baculovirus, pFastBac1)
Sequence (Q99873 with tags, fused parts or gaps): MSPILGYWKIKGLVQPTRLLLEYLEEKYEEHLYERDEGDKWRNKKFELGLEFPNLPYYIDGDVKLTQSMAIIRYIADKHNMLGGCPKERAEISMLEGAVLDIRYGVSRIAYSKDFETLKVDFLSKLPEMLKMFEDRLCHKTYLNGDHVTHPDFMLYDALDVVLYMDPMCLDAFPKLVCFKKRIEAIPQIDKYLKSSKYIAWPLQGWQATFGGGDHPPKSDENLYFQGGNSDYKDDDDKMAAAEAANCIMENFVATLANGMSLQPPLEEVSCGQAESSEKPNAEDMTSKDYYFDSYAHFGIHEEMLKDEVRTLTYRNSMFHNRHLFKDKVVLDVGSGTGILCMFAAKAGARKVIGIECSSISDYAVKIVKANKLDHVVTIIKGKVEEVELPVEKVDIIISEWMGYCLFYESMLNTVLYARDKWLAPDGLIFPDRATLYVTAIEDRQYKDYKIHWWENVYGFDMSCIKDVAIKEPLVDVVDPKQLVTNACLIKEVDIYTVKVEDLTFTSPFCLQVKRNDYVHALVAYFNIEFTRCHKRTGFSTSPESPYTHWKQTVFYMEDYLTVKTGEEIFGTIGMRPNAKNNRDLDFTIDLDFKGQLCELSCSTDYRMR
ASSAY INFO: PRMT1 Biochemical Assay
CONDITION NOTES: peptide substrate, 3H-SAM Flashplate assay; read-out: PRMT1 IC50
RESULT TYPE: IC50 (nM)

{"MOLECULE": "C=C(C)COc1c(Cl)cc(-c2n[nH]cc2CN(C)CCNC)cc1C(F)(F)F [Compound 39]", "IC50 / nM": 8.31}
{"MOLECULE": "CNCCN(C)Cc1c[nH]nc1-c1ccc(OCCOc2ccc(OCC(C)C)cc2)cc1 [Compound 40]", "IC50 / nM": 8.34}
{"MOLECULE": "CNCCN(C)Cc1c[nH]nc1-c1ccc(OCCOC)nc1 [Compound 121]", "IC50 / nM": 42.3}
